biological target: Bcat-Halo (UniProt P35222); assay: NanoBRET absolute IC50, HEK293 cells, Bcat-Halo/TCF4-Luc engagement
Sequence (P35222 whole entry): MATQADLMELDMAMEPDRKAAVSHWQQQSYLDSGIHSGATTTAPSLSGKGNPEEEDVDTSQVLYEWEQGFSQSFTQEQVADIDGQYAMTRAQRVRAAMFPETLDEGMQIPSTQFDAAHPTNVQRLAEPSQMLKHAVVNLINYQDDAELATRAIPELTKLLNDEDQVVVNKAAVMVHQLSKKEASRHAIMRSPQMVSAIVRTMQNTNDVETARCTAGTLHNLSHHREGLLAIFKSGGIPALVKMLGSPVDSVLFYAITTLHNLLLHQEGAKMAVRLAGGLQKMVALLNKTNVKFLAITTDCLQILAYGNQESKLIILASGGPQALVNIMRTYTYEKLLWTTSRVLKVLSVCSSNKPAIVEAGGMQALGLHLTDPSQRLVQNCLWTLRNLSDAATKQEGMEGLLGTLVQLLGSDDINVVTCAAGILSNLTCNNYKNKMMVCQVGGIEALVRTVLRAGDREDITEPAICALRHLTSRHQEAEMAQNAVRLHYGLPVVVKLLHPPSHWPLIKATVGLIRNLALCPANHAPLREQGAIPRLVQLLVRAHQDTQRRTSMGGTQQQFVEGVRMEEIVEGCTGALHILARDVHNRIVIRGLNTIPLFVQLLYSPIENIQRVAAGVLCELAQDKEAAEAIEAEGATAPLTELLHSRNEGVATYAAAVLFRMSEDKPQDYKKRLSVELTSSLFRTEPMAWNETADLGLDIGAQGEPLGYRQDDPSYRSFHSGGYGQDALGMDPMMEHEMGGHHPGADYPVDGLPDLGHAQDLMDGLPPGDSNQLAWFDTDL
Starred links: 1 amine or outer side, 2 acyl side, 3 side chain; linkers in the order of their positions; H or OH if unused. Positions of bridges follow the written chain, without caps; N, C: chain ends. Non-standard residues stand in square brackets, D forms with d. Primed or numbered codes have the meaning given here. No end group written: not given here. PyrS2″ = (S)-3-amino-1-((pent-4-en-1-yloxy)carbonyl)pyrrolidine-3-carboxylic acid (stapling residue), C=CCCCOC(=O)N1CC[C@@](N[*:1])(C(=O)[*:2])C1; B5(4) = 2,2-bis(4-pentenyl)glycine = 2-amino-2-(pent-4-en-1-yl)hept-6-enoic acid (stitching residue), C=CCCCC(CCCC=C)(N[*:1])C(=O)[*:2]; Phe(3-COOH) = N[C@@H](Cc1cccc(C(=O)O)c1)C(=O)O; Phe(2-CF3) = N[C@@H](Cc1ccccc1C(F)(F)F)C(=O)O; Phe(2-Cl) = N[C@@H](Cc1ccccc1Cl)C(=O)O; Bta = N[C@@H](Cc1csc2ccccc12)C(=O)O; αAllylPro = C=CC[C@@]1(C(=O)O)CCCN1; tBuAla = CC(C)(C)C[C@H](N)C(=O)O; 2Thi = N[C@@H](Cc1cccs1)C(=O)O; Thr(ol) = C[C@@H](O)[C@H](N)CO
EXPERIMENTAL_ENDPOINT: IC50 (µM)

1. [αAllylPro]D[tBuAla][B5(4)]DDAAFF[PyrS2″][2Thi][Bta]Q-NH2 (staple 1-4, 4-11) [I-1345]
2. [αAllylPro]D[tBuAla][B5(4)]D[Phe(3-COOH)]AAFF[PyrS2″][Phe(2-CF3)][Bta]S-NH2 (staple 1-4, 4-11) [I-1342]
## Input For the pair 1 and 2 , which entry has the numerically smaller recorded IC50? Pick one and reply with its label.
## Output 1

P. [αAllylPro]D[tBuAla][B5(4)]D[Phe(3-COOH)]AAFF[PyrS2″][Phe(2-Cl)][Bta]S-NH2 (staple 1-4, 4-11) [I-1339]
Q. [αAllylPro]D[tBuAla][B5(4)]D[Phe(3-COOH)]AAFF[PyrS2″][Phe(2-Cl)][Bta]Q-NH2 (staple 1-4, 4-11) [I-1338]
## Input Given P and Q , report the one with the higher recorded IC50. Refer to your chosen entry by its label in the reply.
## Output P
(P: 5.2 µM, Q: 3.6 µM)

1. [αAllylPro]D[tBuAla][B5(4)]D[Phe(3-COOH)]AAFF[PyrS2″][Phe(2-Cl)][Bta][Thr(ol)] (staple 1-4, 4-11) [I-1340]
2. [αAllylPro]D[tBuAla][B5(4)]D[Phe(3-COOH)]AAFF[PyrS2″][Phe(2-CF3)][Bta]Q-NH2 (staple 1-4, 4-11) [I-1341]
## Input Lab log: flag the item ( 1 or 2 ) with the smaller IC50 figure. // respond with label for picked entry
## Output 2
